Test system: BDF1 mice, P388 leukemia ip, median survival T/C
Experiment Summary: NCI In Vivo Anticancer Drug Screen. Data for tumor model P388 Leukemia (intraperitoneal) in B6D2F1 (BDF1) mice
Assay Conditions: endpoint: median survival time; dose: 400.0 mg/kg/injection; schedule: Q04DX003 (ip); vehicle: saline with Tween-80; higher = longer survival
Toxic doses and inconclusive results are not listed.
T/C values for the molecules below.
Observation Type: T/C

In [3]: df
Out[3]:
                             query_smiles  observation_type        data_value
0              CCCCNC(=O)Nc1ccc(N(C)C)cc1               T/C  100 % of control
1               CCCCCCCCSc1ncnc2nc[nH]c12               T/C  100 % of control
2          COc1ccc2[nH]c(=S)[nH]c(=S)c2c1               T/C  100 % of control
3  CCOC1=C(C#N)CC2(CC1)c1ccccc1-c1ccccc12               T/C   91 % of control
4              CCCN1CSC(=S)N(Cc2ccccc2)C1               T/C   95 % of control
5        Nc1nc2ccccc2c(=O)n1C(=O)c1ccccc1               T/C  116 % of control

Recorded values, source PubChem BioAssay AID328.
